target: SULT1A1 (Homo sapiens, UniProt P50225); type: binding; conditions: read-out: Kd EGCG; enzyme form E·EGCGPAP
Sequence (P50225 whole entry): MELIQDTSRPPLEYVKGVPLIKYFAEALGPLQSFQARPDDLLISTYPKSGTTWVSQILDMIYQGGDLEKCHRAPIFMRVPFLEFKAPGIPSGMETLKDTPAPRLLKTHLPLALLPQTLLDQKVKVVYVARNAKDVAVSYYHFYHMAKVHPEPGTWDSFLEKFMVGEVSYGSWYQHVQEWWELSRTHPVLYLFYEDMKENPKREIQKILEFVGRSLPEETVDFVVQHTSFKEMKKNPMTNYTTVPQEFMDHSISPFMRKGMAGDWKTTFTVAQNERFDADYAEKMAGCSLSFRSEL
METRIC NAME: pKd
One number for each entry, as −log10 of the molar value.

Value lookup for pKd; key = O=C(O[C@@H]1Cc2c(O)cc(O)cc2O[C@@H]1c1cc(O)c(O)c(O)c1)c1cc(O)c(O)c(O)c1 [EGCG, epigallocatechin gallate]
6.09

###

biological target: SULT1A1 (Homo sapiens); assay: Presteady state; type: binding; conditions: read-out: Kd (koff/Kon); EGCG, enzyme species E
METRIC NAME: pKd
Give bare numbers, as −log10 of the molar value.

Value lookup for pKd; key = O=C(O[C@@H]1Cc2c(O)cc(O)cc2O[C@@H]1c1cc(O)c(O)c(O)c1)c1cc(O)c(O)c(O)c1 [EGCG, epigallocatechin gallate]
6.15

###

target: SULT1A1 (Homo sapiens); experiment: Presteady state; assay type: binding; conditions: Kd (koff/Kon), PAP, enzyme species E·(EGCG)2
METRIC NAME: Kd (nM)
One number for each entry, in nM.

Value lookup for Kd; key = Nc1ncnc2c1ncn2[C@@H]1O[C@H](COP(=O)(O)O)[C@@H](OP(=O)(O)O)[C@H]1O [PAP, 3’, 5’-diphosphoadenosine]
22

###

target: SULT1A1 (Homo sapiens, UniProt P50225); test: Presteady state; type: binding; details: Kd (koff/Kon), PAP, enzyme species E·(EGCG)2·PAP
METRIC NAME: pKd
Give bare numbers, as −log10 of the molar value.

Value lookup for pKd; key = Nc1ncnc2c1ncn2[C@@H]1O[C@H](COP(=O)(O)O)[C@@H](OP(=O)(O)O)[C@H]1O [PAP, 3’, 5’-diphosphoadenosine]
6.06

###

molecular target: SULT1A1 (Homo sapiens); format: binding; details: Kd of acceptor, enzyme form E·(PAP)2·(EGCG)2
METRIC NAME: Kd

Value lookup for Kd; key = CC/C(=C(\c1ccc(O)cc1)c1ccc(OCCN(C)C)cc1)c1ccccc1 [TAM, 4-hydroxytamoxifen]
16 µM

###

target: SULT1A1 (Homo sapiens, UniProt P50225); type: binding; conditions: Kd PAP, enzyme form E·(EGCG)2 (high-affinity site)
METRIC NAME: pKd
Give bare numbers, as −log10 of the molar value.

Value lookup for pKd; key = Nc1ncnc2c1ncn2[C@@H]1O[C@H](COP(=O)(O)O)[C@@H](OP(=O)(O)O)[C@H]1O [PAP, 3’, 5’-diphosphoadenosine]
7.62

###

Record form. Attribute: Kd. Fill in for each entry.
target: SULT1A1 (Homo sapiens, UniProt P50225); assay type: binding; details: read-out: Kd of acceptor; enzyme form E·(EGCG)2
Answers are plain numbers, in nM.

CC/C(=C(\c1ccc(O)cc1)c1ccc(OCCN(C)C)cc1)c1ccccc1 [TAM, 4-hydroxytamoxifen] :: 670

Value lookup for Kd; key = C[C@]12CC[C@@H]3c4ccc(O)cc4CC[C@H]3[C@@H]1CC[C@@H]2O [E2, 17-β-estradiol]
1000

###

target: SULT1A1 (Homo sapiens); assay: Presteady state; assay type: binding; conditions: read-out: Kd (koff/Kon); EGCG, enzyme species E·PAP·EGCG
METRIC NAME: Kd (nM)
Numbers only, in nM.

Kd of O=C(O[C@@H]1Cc2c(O)cc(O)cc2O[C@@H]1c1cc(O)c(O)c(O)c1)c1cc(O)c(O)c(O)c1 [EGCG, epigallocatechin gallate] on SULT1A1 (Homo sapiens)?
810

###

target: SULT1A1 (Homo sapiens, UniProt P50225); experiment: Presteady state; format: binding; conditions: read-out: Kd (koff/Kon); EGCG, enzyme species E·PAP
METRIC NAME: pKd
Answers are plain numbers, as −log10 of the molar value.

Value lookup for pKd; key = O=C(O[C@@H]1Cc2c(O)cc(O)cc2O[C@@H]1c1cc(O)c(O)c(O)c1)c1cc(O)c(O)c(O)c1 [EGCG, epigallocatechin gallate]
7.34

###

biological target: UniProt P50225; format: binding; conditions: read-out: Kd EGCG; enzyme form E (ligand-free), allosteric site
METRIC NAME: pKd
Give bare numbers, as −log10 of the molar value.

Value lookup for pKd; key = O=C(O[C@@H]1Cc2c(O)cc(O)cc2O[C@@H]1c1cc(O)c(O)c(O)c1)c1cc(O)c(O)c(O)c1 [EGCG, epigallocatechin gallate]
6.17

###

target: SULT1A1 (Homo sapiens, UniProt P50225); format: binding; settings: Kd PAP, enzyme form E·EGCGPAP
METRIC NAME: Kd

Value lookup for Kd; key = Nc1ncnc2c1ncn2[C@@H]1O[C@H](COP(=O)(O)O)[C@@H](OP(=O)(O)O)[C@H]1O [PAP, 3’, 5’-diphosphoadenosine]
31 µM

###

target: SULT1A1 (Homo sapiens, UniProt P50225); format: binding; details: read-out: Kd of acceptor; enzyme form E·(PAP)2·(EGCG)2
METRIC NAME: pKd
Answers are plain numbers, as −log10 of the molar value.

Value lookup for pKd; key = C[C@]12CC[C@@H]3c4ccc(O)cc4CC[C@H]3[C@@H]1CC[C@@H]2O [E2, 17-β-estradiol]
6.00

###

molecular target: SULT1A1 (Homo sapiens); assay type: binding; conditions: read-out: Kd of acceptor; enzyme form E
METRIC NAME: pKd
Give bare numbers, as −log10 of the molar value.

Value lookup for pKd; key = CC/C(=C(\c1ccc(O)cc1)c1ccc(OCCN(C)C)cc1)c1ccccc1 [TAM, 4-hydroxytamoxifen]
6.19

###

molecular target: SULT1A1 (Homo sapiens, UniProt P50225); type: binding; details: Kd of acceptor, enzyme form E·(PAP)2
METRIC NAME: Kd

Value lookup for Kd; key = CC/C(=C(\c1ccc(O)cc1)c1ccc(OCCN(C)C)cc1)c1ccccc1 [TAM, 4-hydroxytamoxifen]
700 nM
